# STUDY TARGET: UniProtKB P42336
# Sequence (P42336 whole entry, species assumed): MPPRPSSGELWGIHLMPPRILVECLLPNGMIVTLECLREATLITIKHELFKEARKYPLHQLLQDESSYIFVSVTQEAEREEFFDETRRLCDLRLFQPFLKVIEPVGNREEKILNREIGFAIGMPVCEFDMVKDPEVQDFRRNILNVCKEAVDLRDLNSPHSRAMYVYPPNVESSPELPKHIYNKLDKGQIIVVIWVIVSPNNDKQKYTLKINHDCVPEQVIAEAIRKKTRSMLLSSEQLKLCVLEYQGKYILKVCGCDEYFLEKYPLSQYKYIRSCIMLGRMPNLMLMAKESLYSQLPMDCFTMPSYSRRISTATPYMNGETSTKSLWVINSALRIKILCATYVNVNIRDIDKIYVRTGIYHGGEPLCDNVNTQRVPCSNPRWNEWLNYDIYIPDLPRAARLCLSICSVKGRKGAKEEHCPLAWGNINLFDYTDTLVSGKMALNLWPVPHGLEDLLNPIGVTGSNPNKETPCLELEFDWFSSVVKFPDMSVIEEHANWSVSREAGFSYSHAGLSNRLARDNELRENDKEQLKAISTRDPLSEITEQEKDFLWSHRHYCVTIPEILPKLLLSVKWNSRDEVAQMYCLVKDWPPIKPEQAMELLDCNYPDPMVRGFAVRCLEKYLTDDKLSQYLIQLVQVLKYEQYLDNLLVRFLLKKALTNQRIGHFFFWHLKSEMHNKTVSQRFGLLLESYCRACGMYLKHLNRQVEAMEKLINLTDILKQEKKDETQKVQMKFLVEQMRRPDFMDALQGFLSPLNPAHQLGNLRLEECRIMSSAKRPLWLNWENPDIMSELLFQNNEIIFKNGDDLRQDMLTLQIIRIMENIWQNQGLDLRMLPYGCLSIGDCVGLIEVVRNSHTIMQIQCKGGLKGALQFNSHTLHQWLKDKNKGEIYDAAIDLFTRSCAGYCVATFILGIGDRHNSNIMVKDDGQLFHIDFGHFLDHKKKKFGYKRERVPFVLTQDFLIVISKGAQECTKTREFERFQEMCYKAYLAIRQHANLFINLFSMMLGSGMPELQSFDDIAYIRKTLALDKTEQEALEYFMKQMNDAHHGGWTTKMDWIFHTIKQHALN
# Sequence (P27986 whole entry partner, species assumed): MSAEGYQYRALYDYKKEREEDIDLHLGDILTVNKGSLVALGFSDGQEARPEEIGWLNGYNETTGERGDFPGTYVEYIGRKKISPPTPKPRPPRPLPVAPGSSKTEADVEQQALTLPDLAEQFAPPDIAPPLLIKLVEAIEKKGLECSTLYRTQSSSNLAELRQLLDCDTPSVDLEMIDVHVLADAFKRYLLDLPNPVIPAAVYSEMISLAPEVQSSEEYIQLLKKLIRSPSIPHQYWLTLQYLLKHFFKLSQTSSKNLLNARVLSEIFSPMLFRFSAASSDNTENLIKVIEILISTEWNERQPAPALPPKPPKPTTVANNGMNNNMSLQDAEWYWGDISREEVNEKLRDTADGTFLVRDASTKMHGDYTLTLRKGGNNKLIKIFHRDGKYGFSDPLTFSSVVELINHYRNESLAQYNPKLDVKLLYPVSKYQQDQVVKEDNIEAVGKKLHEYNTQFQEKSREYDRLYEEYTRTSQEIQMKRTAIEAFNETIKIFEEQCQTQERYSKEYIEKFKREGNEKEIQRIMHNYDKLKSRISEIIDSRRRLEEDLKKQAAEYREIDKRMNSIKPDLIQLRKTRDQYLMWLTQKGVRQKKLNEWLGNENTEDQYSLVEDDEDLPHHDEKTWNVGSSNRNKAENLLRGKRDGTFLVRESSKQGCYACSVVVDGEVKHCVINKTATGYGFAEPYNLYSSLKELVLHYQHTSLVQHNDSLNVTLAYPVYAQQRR
# ASSAY: PI3K α kinase assay
# Format: biochemical
# CONDITION: Table 1
pIC50: −log10 of the molar value.
Catalogue of pIC50 values

MOLECULE	pIC50
CC(=O)Nc1nc2ccc(-c3nn(C(C)C)c4ncnc(N)c34)cc2o1	< 5.00
COC(=O)Nc1noc2cc(-c3nn(C(C)C)c4ncnc(N)c34)ccc12	> 5.00
CC(C)n1nc(-c2ccc3nc(N)oc3c2)c2c(N)ncnc21	> 5.00
CC(C)n1nc(-c2ccc3onc(NC4CC4)c3c2)c2c(N)ncnc21	< 5.00
Cc1nc(N)c2c(-c3ccc4oc(N)nc4c3)nn(C(C)C)c2n1	< 5.00
Nc1nc2cc(-c3nn(C4CC(=O)C4)c4ncnc(N)c34)ccc2o1	> 6.00
CC(CO)n1nc(-c2ccc3oc(N)nc3c2)c2c(N)ncnc21 (stereo not drawn)	> 5.00
Nc1noc2ccc(-c3nn(CC(=O)N4CCOCC4)c4ncnc(N)c34)cc12	< 5.00
Nc1nc2cc(-c3nn(C4CC(O)C4)c4ncnc(N)c34)ccc2o1 (stereo not drawn)	> 7.00
